All figures here come from paper PMC10930102.

Measured IC50, listed per entry.
target-under-test: HDAC1 (Homo sapiens, UniProt Q13547)
Sequence (Q13547 whole entry): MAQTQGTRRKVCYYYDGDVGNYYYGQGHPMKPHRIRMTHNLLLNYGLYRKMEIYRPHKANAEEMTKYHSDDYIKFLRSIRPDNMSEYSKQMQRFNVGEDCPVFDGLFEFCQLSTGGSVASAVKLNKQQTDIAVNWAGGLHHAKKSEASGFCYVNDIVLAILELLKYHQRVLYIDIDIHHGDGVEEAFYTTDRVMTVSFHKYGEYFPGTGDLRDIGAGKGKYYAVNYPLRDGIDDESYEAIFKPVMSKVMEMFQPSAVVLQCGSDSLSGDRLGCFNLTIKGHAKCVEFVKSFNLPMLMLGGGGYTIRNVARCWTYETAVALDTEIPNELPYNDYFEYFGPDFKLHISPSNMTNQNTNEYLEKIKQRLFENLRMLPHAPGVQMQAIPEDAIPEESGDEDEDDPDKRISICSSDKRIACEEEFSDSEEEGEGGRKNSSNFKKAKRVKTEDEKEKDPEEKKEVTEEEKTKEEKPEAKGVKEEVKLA
test-method-notes: HDAC inhibition assay (fluorogenic peptide, Reaction Biology)
details: tested once, ten-dose starting at 30 µM
Form entry: value (µM) — number only.

Observe how each entry below is paired with its result.
| molecule | IC50, µM |
| --- | --- |
| CC(C)NC(=O)C1CCC(n2c(=NC(=O)c3ccccc3)[nH]c3cc(C=CC(=O)NO)ccc32)CC1 (stereo not drawn) [Compound 3b] | 10.8 |
| CC(C)NC(=O)CCCn1/c(=N/C(=O)c2ccccc2)[nH]c2cc(/C=C/C(=O)NO)ccc21 [Compound 3a] | 6.18 |
| CCCC(=O)/N=c1\[nH]c2cc(/C=C/C(=O)NO)ccc2n1CCCC(=O)NC(C)C [Compound 3e] | 0.84 |

Asked: Lab request: please report IC50 under test system HDAC1 (Homo sapiens, UniProt Q13547) for CC(C)NC(=O)[C@H]1CC[C@@H](n2/c(=N/C(=O)c3ccccc3)[nH]c3cc(NC(=O)CCCCCCC(=O)NO)ccc32)CC1 [Compound 3f]
Given back: 2.29
